# MEASUREMENT DESCRIPTION: Pharmacokinetics of orally administered squalamine (ENT-01), Phase 2 trial
# Format: in vivo
# DETAILS: human, plasma, po, 175 mg, Stage 1, 175 mg oral, 7 patients; read-out: AUC0-16hr
REPORTED ENDPOINT: AUC(0-t)

// query Request the reported AUC(0-t) associated with CC(C)[C@@H](CC[C@@H](C)[C@H]1CC[C@H]2[C@@H]3[C@H](O)C[C@H]4C[C@@H](NCCCNCCCCN)CC[C@]4(C)[C@H]3CC[C@]12C)OS(=O)(=O)O (single isomer, unassigned) [squalamine (ENT-01)]
// result 91.2 ng·h/mL

----------
# MEASUREMENT DESCRIPTION: Pharmacokinetics of orally administered squalamine (ENT-01), Phase 2 trial
# Format: in vivo
# DETAILS: human, in vivo, po, 100 mg, Stage 2, 100 mg oral daily, 4 patients (2 visits each), mean, approximate
REPORTED ENDPOINT: Cmax (ng/mL)
// units = ng/mL; emit number, no label

// query Request the reported Cmax associated with CC(C)[C@@H](CC[C@@H](C)[C@H]1CC[C@H]2[C@@H]3[C@H](O)C[C@H]4C[C@@H](NCCCNCCCCN)CC[C@]4(C)[C@H]3CC[C@]12C)OS(=O)(=O)O (single isomer, unassigned) [squalamine (ENT-01)]
// result 17.7

----------
# MEASUREMENT DESCRIPTION: Pharmacokinetics of orally administered squalamine (ENT-01), Phase 2 trial
# Type: in vivo
# DETAILS: human, plasma, po, 25 mg, Stage 1, 25 mg oral, 9 patients, mean, approximate
REPORTED ENDPOINT: Cmax (ng/mL)
// units = ng/mL; emit number, no label

// query Request the reported Cmax associated with CC(C)[C@@H](CC[C@@H](C)[C@H]1CC[C@H]2[C@@H]3[C@H](O)C[C@H]4C[C@@H](NCCCNCCCCN)CC[C@]4(C)[C@H]3CC[C@]12C)OS(=O)(=O)O (single isomer, unassigned) [squalamine (ENT-01)]
// result 2.84

----------
# MEASUREMENT DESCRIPTION: Pharmacokinetics of orally administered squalamine (ENT-01), Phase 2 trial
# Format: in vivo
# DETAILS: human, plasma, po, 125 mg, Stage 1, 125 mg oral, 9 patients; read-out: AUC0-16hr
REPORTED ENDPOINT: AUC(0-t)
For clarity, give the value followed by its unit.

// query Request the reported AUC(0-t) associated with CC(C)[C@@H](CC[C@@H](C)[C@H]1CC[C@H]2[C@@H]3[C@H](O)C[C@H]4C[C@@H](NCCCNCCCCN)CC[C@]4(C)[C@H]3CC[C@]12C)OS(=O)(=O)O (single isomer, unassigned) [squalamine (ENT-01)]
// result 77.7 ng·h/mL

----------
# MEASUREMENT DESCRIPTION: Pharmacokinetics of orally administered squalamine (ENT-01), Phase 2 trial
# Assay type: in vivo
# DETAILS: human, plasma, po, 100 mg, Stage 1, 100 mg oral, n = 5; read-out: T½ (converted)
# Procedure: PK data were collected on the 10 patients enrolled in Stage 1 and 10 patients enrolled in Stage 2 to determine the extent of systemic absorption. In Stage 1, PK data were obtained at each visit, pre-medication, at 1, 2, 4, 8 and 24 hours (Table 11). In Stage 2, PK was measured on days 1 and 6 of the randomization period pre-medication, at 1, 2, 4 and 8 hours (Table 12). The mean Cmax, Tmax and T1/2 and AUC of the squalamine ion following squalamine (ENT-01) oral dosing for Stage 1 patients. […]
REPORTED ENDPOINT: half-life (h)
// units = h; emit number, no label

// query Request the reported half-life associated with CC(C)[C@@H](CC[C@@H](C)[C@H]1CC[C@H]2[C@@H]3[C@H](O)C[C@H]4C[C@@H](NCCCNCCCCN)CC[C@]4(C)[C@H]3CC[C@]12C)OS(=O)(=O)O (single isomer, unassigned) [squalamine (ENT-01)]
// result 3.9
